tested on: MS2 coat protein; experiment: apparent KD of MS2 coat protein; designed switch direction (-1 OFF switch, 1 ON switch): 1; higher = weaker reporter binding; details: input ligand: FMN 200 uM
// label = condition met if apparent KD of MS2 coat protein is not less than 100 nM, otherwise condition not met

Item sequence	Target of assay	Assigned class
CGCGAACAGGCAGGAUAUAUAGAGCCAAAUAUUGUAGAAGGGCCACGUGCGGGAAGAGAACACAUGAGGAUCACCCAUGUUCGA [Eternabot solution 5] (Eterna round: R96, puzzle: Same State NG 1)	MS2 coat protein	condition not met

Continue with the next sequence.
## Task apparent KD of MS2 coat protein >= 100 nM for AUUAGUAAUGCAGGAUAUGAUUAACAUGAGGAUCACCCAUGUGGUGUUGUGAGUAAGGAGAGUGAUCAGAAGGGCAUUUUUUUU [JMF's solution 28] (Eterna round: R96, puzzle: Same State NG 2) ?
## Result condition met

----------
system: MS2 coat protein; assay: apparent KD of MS2 coat protein; designed switch direction (-1 OFF switch, 1 ON switch): -1; higher = weaker reporter binding; settings: input ligand: FMN 200 uM
# label = Condition met if apparent KD of MS2 coat protein >= 300 nM else Condition not met

## Task For this sequence, is measured apparent KD of MS2 coat protein 300 nM or higher? ACAUGAUGCUUAGGAUAUGUUCUUACGCCAUGAAUAGAAGGGAGCGGACAGAAGUGACCUGACAUGAGGAUCACCCAUGUCUAA [Isusus] (Eterna round: R96, puzzle: Exclusion NG 1)
## Result Condition not met

## Task Does apparent KD of MS2 coat protein meet or surpass 300 nM for AUUUACGGAGGAUAUACUUGAGGAUCACCCAAGUGGAGUCCCGUUUGGGCGGUAAAUAGUAGAAGGCCGUCCCA [jl-ex3-4.45 ViennaUCT mod] (Eterna round: R97, puzzle: Exclusion 3) ?
## Result Condition not met

----------
tested on: MS2 coat protein; test: apparent KD of MS2 coat protein; designed switch direction (-1 OFF switch, 1 ON switch): -1; higher = weaker reporter binding; details: Eterna round: R95; input ligand: microRNA oligo, concentration not stated
Catalogue of apparent KD of MS2 coat protein values
Please state the figure in nM; there is no need to write the unit.

Below are worked cases with known answers.
Item sequence	Target of assay	Observed measurement
AGUACUAACACGGAAGUGUUAGUACUAUAAGCUUGUGUUACAUGAGGAUCACCCAUGUCCUCAUAAGCUCGUCUUAA [Mat - Sensor v3 - Turn-off var 2 - D70] (puzzle: Sensor v3, turn-off variant 2)	MS2 coat protein	127
AAGUACUACAAGCUUUGGGACAUGAGGAUCACCCAUGUUCGUCUUAUUGAUCUAGGUACGCUGACGUACCUAGAUCU [Mat - Sensor v3 - turn-off var 1 - JL Mod - D8] (puzzle: Sensor v3, turn-off variant 1)	MS2 coat protein	73.4

Now look at this entry.
## Task Give the reported value of apparent KD of MS2 coat protein for this record: GCAAGAGCAGGAUAUCUAAUAUAUCACAUGAGGAUCACCCAUGUCCAGCGAAAGCUGGAGGGAGAAGGGCUCUUGC [Mat - Exclusion 5 - Eli mod - D101] (puzzle: Exclusion 5)
## Result 123

----------
tested on: MS2 coat protein; experiment: apparent KD of MS2 coat protein, switch OFF state (with FMN for OFF switches, without FMN for ON switches); designed switch direction (-1 OFF switch, 1 ON switch): -1; higher = weaker reporter binding; details: FMN input: 0 or 200 uM; Eterna round: R93 (includes R88 designs)
Property label: apparent KD of MS2 coat protein (µM)
Hi! Could you send only the number? It should be in µM, unit omitted.

> print(dat)
                              item.sequence                   property.label  observed.measurement
1  GAAAAGUCAGGAUAUGCAGAUAAAAAAACGAAAAAAAAUCUGCAGAAGGGACAUGAGGAUCACCCAUGUAAAAA [Mat - Exclusion 4 - Mayanna - D109]  apparent KD of MS2 coat protein                0.0457

## Task Look up and report measured apparent KD of MS2 coat protein for this entry: AAGGGACAUGAGGAUCACCCAUGUGAGGAUAUGAUGCGAAUAAAGAAAUAAUAAAGCAUCAGAAGGCACACCAA [Mat - Exclusion 1 - Eli mod - D67]
## Result 0.0885

## Task Tell us which apparent KD of MS2 coat protein value is on record for CUCAAGUUAGGAUAUGGAAGAAAAGAAGAGAAAGAAAAGAACCAGAAGGAACAUGAGGAUCACCCAUGUAAGAA [EteRNA is fun!]
## Result 0.0627

Reference for the values: the supplement of paper PMC9170038
